# credit: patent US10144715B2

target: Gal4 DNA binding domain fused to the LBD of LXRβ in HEK293 cells (Homo sapiens (Human), UniProt P55055); experiment: cell-based; assay type: cell-based; conditions: antagonist mode, 200 nM T0901317, HEK293 reporter gene assay; read-out: Cell LXRβ IC50
Sequence (P55055 222-460 limits assumed): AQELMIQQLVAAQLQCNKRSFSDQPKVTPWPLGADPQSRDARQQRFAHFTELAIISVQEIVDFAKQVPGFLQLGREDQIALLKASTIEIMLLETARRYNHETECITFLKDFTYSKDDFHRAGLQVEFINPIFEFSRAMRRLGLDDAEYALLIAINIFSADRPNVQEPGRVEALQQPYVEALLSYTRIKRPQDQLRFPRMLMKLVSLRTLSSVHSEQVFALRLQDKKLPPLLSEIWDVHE
pIC50: −log10 of the molar value.
# label = MET if pIC50 >= 6 else NOT MET

| Compound | Group label |
| --- | --- |
| NS(=O)(=O)c1cccc(N2CCN(C[C@H]3CC[C@@H](C(F)F)CC3)[C@@H](c3ccccc3)C2)c1 (single isomer, unassigned) | MET |
| CC(C)[C@H]1CC[C@H](CN2CCN(c3cccc(S(C)(=O)=O)c3)C[C@@H]2c2ccccc2)CC1 (single isomer, unassigned) | MET |
| CS(=O)(=O)c1cc(N2CCN(C[C@H]3CC[C@@H](C(F)(F)F)CC3)[C@@H](c3ccc(F)cc3)C2)ccc1F | NOT MET |

Enquiry: Identify whether the reported pIC50 of the following compound is 6 or greater: CS(=O)(=O)c1cccc(N2CCN(C[C@H]3CC[C@]4(CC3)CC4(F)F)[C@@H](c3ccccc3)C2)c1 (single isomer, unassigned)
Return: MET

* * *

molecular target: LXR β LBD protein (Homo sapiens (Human), UniProt P55055); assay: biochemical; type: binding; settings: read-out: LXRβ Binding Ki
Sequence (P55055 222-460 limits assumed): as above
For each record, write down the corresponding Ki.
Give bare numbers, in µM.

Example results:
| Compound | Recorded number |
| --- | --- |
| CC(C)[C@@H]1CN(c2ccc(F)c(S(C)(=O)=O)c2)CCN1c1ncc(CN2CC(O)C2)c(C(F)(F)F)n1 | 0.1 |
| CC(C)[C@H]1CN(c2ccc(C#N)c(S(C)(=O)=O)c2)CCN1Cc1ccc(C(F)(F)F)cc1 | 0.231 |
| CC(C)[C@@H]1CN(c2ccc(F)c(S(C)(=O)=O)c2)CCN1c1ncc(C#N)c(C(F)(F)F)n1 | 0.009 |

Turning now to a further compound:
Enquiry: Please look up its Ki: CS(=O)(=O)c1cccc(N2CCN(Cc3ccc(C(F)(F)F)nc3)[C@@H](c3ccccc3Cl)C2)c1 (single isomer, unassigned)
Return: 0.061

* * *

biological target: Gal4 DNA binding domain fused to the LBD of LXRα in HEK293 cells (Homo sapiens (Human), UniProt Q13133); experiment: LXR luciferase transcriptional reporter gene assay, agonist mode, LXRα; type: cell-based; settings: agonist mode; read-out: Cell LXRα EC50
Sequence (Q13133 209-447): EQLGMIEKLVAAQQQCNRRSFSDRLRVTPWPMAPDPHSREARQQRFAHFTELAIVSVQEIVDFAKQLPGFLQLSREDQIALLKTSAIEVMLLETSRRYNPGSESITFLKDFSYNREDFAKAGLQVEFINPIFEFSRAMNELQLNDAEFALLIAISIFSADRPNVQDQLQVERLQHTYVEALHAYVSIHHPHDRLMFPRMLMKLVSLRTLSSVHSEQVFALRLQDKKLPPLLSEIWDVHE
Please go through the items and note down their EC50.
Answers are plain numbers, in µM.

| Molecule | EC50, µM |
| --- | --- |
| CC(C)[C@@H]1CN(c2ccc(F)c(S(C)(=O)=O)c2)CCN1c1cnc(C(F)(F)F)cn1 [Cpd No 7-44] | 0.12 |
| CC(O)c1nc(N2CCN(c3ccc(F)c(S(C)(=O)=O)c3)C[C@H]2C(C)C)ncc1C(F)(F)F (stereo partly shown) [Cpd No 38-1] | 0.165 |
| CS(=O)(=O)c1cc(N2CCN(Cc3ccc(C(F)(F)F)nc3)C(c3ccccc3)C2)ccc1CO (stereo not shown) [Cpd No 47-1] | 8.4 |
| CC(C)[C@@H]1CN(c2ccc(C#N)c(S(C)(=O)=O)c2)CCN1c1nccc(C(F)(F)F)n1 [7-17] | 1.11 |

Items follow; give EC50 for each.
1. CS(=O)(=O)c1cccc(N2CCN(Cc3ccc(C(F)(F)F)nc3)C(c3ccccc3Br)C2)c1 (stereo not shown) [46-60]
2. CCOC(=O)c1cnc(N2CCN(c3ccc(F)c(S(C)(=O)=O)c3)CC2CC(F)(F)F)nc1C (stereo not shown) [7-22]
3. CC(C)[C@@H]1CN(c2ccc(F)c(S(C)(=O)=O)c2)CCN1c1ncc(CN(C)C)c(C(F)(F)F)n1 [15-3]
4. CC(C)[C@@H]1CN(c2cc(F)c(CO)c(S(C)(=O)=O)c2)CCN1c1ncc(C(N)=O)c(C(F)(F)F)n1 [Cpd No 17-28]

Return:
[4.38, 1.04, 1.14, 0.913]

Could you tell me EC50 for each of these molecules? They are listed below.
1. CC(C)[C@@H]1CN(c2ccc(-c3nc(C#N)cs3)c(S(C)(=O)=O)c2)CCN1c1ncc(CO)c(C(F)(F)F)n1 [Cpd No 11-12]
2. CC(C)[C@@H]1CN(c2cccc(S(C)(=O)=O)c2)CCN1c1ccc(C(F)F)cn1 [7-34]
3. CC(C)[C@H]1CN(c2ccc(CO)c(S(C)(=O)=O)c2)CCN1Cc1ccc(C(F)(F)F)c(F)c1 [47-3]
4. CC(C)[C@@H]1CN(c2ccc(CO)c(S(C)(=O)=O)c2)CCN1c1nc(C(F)(F)F)c(C(C)(C)O)s1 [Cpd No 27-1]

Return:
0.488
14
1.28
0.225
